ASSAY_CONDITIONS: in acetonitrile, 293.15 K
METRIC: solubility (mole fraction)
Numbers only.

solubility (mole fraction) lookup needed for CC(C)(C)C(=O)C(Oc1ccc(Cl)cc1)n1cncn1 (stereo unspecified) , thanks.
0.0132

* * *

ASSAY_CONDITIONS: in n-heptane, 303.15 K
METRIC: solubility (mole fraction)
Give bare numbers.

Query (compound): CC(C)(C)C(=O)C(Oc1ccc(Cl)cc1)n1cncn1 (stereo unspecified) ; field requested: solubility (mole fraction)
0.00483

* * *

ASSAY_CONDITIONS: in toluene, 328.15 K
METRIC: solubility (mole fraction)
One number for each entry.

Fill blank: measured solubility (mole fraction) of the molecule CC(C)(C)C(=O)C(Oc1ccc(Cl)cc1)n1cncn1 (stereo unspecified) is ____.
0.431

* * *

ASSAY_CONDITIONS: in p-xylene, 333.15 K
METRIC: solubility (mole fraction)

// query solubility (mole fraction) value for entry CC(C)(C)C(=O)C(Oc1ccc(Cl)cc1)n1cncn1 (stereo unspecified)
0.553

* * *

ASSAY_CONDITIONS: in acetonitrile, 323.15 K
METRIC: solubility (mole fraction)
Answers are plain numbers.

# input molecule: CC(C)(C)C(=O)C(Oc1ccc(Cl)cc1)n1cncn1 (stereo unspecified) ; wanted: its solubility (mole fraction)
0.0407

* * *

ASSAY_CONDITIONS: in cyclohexane, 323.15 K
METRIC: solubility (mole fraction)
Give bare numbers.

Query (molecule): CC(C)(C)C(=O)C(Oc1ccc(Cl)cc1)n1cncn1 (stereo unspecified) ; field requested: solubility (mole fraction)
0.0692

* * *

ASSAY_CONDITIONS: in toluene, 333.15 K
METRIC: solubility (mole fraction)
Numbers only.

Entry under review: CC(C)(C)C(=O)C(Oc1ccc(Cl)cc1)n1cncn1 (stereo unspecified) . Reported solubility (mole fraction)?
0.475

* * *

ASSAY_CONDITIONS: in cyclohexane, 318.15 K
METRIC: solubility (mole fraction)
Numbers only.

Using the record for CC(C)(C)C(=O)C(Oc1ccc(Cl)cc1)n1cncn1 (stereo unspecified) , report its solubility (mole fraction).
0.0489

* * *

ASSAY_CONDITIONS: in acetonitrile, 318.15 K
METRIC: solubility (mole fraction)
Give bare numbers.

For the compound shown here, CC(C)(C)C(=O)C(Oc1ccc(Cl)cc1)n1cncn1 (stereo unspecified) , give the reported solubility (mole fraction).
0.034

* * *

ASSAY_CONDITIONS: in n-heptane, 313.15 K
METRIC: solubility (mole fraction)
Answers are plain numbers.

Could you tell me which solubility (mole fraction) is on file for CC(C)(C)C(=O)C(Oc1ccc(Cl)cc1)n1cncn1 (stereo unspecified) ?
0.0111

* * *

ASSAY_CONDITIONS: in acetonitrile, 303.15 K
METRIC: solubility (mole fraction)
Answers are plain numbers.

State the recorded solubility (mole fraction) for this entry: CC(C)(C)C(=O)C(Oc1ccc(Cl)cc1)n1cncn1 (stereo unspecified)
0.0196

* * *

ASSAY_CONDITIONS: in n-heptane, 328.15 K
METRIC: solubility (mole fraction)
One number for each entry.

What value of solubility (mole fraction) has been recorded for this entry: CC(C)(C)C(=O)C(Oc1ccc(Cl)cc1)n1cncn1 (stereo unspecified)
0.034

* * *

ASSAY_CONDITIONS: in toluene, 303.15 K
METRIC: solubility (mole fraction)
Give bare numbers.

Any idea what its solubility (mole fraction) is? The molecule is CC(C)(C)C(=O)C(Oc1ccc(Cl)cc1)n1cncn1 (stereo unspecified)
0.192

* * *

ASSAY_CONDITIONS: in cyclohexane, 288.15 K
METRIC: solubility (mole fraction)
Give bare numbers.

Give its solubility (mole fraction) value. Item: CC(C)(C)C(=O)C(Oc1ccc(Cl)cc1)n1cncn1 (stereo unspecified)
0.000445

* * *

ASSAY_CONDITIONS: in n-hexane, 318.15 K
METRIC: solubility (mole fraction)
Answers are plain numbers.

Looking for the measured solubility (mole fraction) of CC(C)(C)C(=O)C(Oc1ccc(Cl)cc1)n1cncn1 (stereo unspecified) , can you help?
0.00984

* * *

ASSAY_CONDITIONS: in n-hexane, 308.15 K
METRIC: solubility (mole fraction)
Answers are plain numbers.

Please give the measured solubility (mole fraction) for this molecule: CC(C)(C)C(=O)C(Oc1ccc(Cl)cc1)n1cncn1 (stereo unspecified)
0.0035

* * *

ASSAY_CONDITIONS: in cyclohexane, 328.15 K
METRIC: solubility (mole fraction)
Answers are plain numbers.

Could you tell me which solubility (mole fraction) is on file for CC(C)(C)C(=O)C(Oc1ccc(Cl)cc1)n1cncn1 (stereo unspecified) ?
0.0869

* * *

ASSAY_CONDITIONS: in n-hexane, 303.15 K
METRIC: solubility (mole fraction)
Give bare numbers.

Find the recorded solubility (mole fraction) belonging to CC(C)(C)C(=O)C(Oc1ccc(Cl)cc1)n1cncn1 (stereo unspecified) and report it.
0.00197

* * *

ASSAY_CONDITIONS: in n-hexane, 323.15 K
METRIC: solubility (mole fraction)
Numbers only.

What measured solubility (mole fraction) goes with CC(C)(C)C(=O)C(Oc1ccc(Cl)cc1)n1cncn1 (stereo unspecified) ?
0.0156

* * *

ASSAY_CONDITIONS: in n-heptane, 323.15 K
METRIC: solubility (mole fraction)
Numbers only.

Item under review: CC(C)(C)C(=O)C(Oc1ccc(Cl)cc1)n1cncn1 (stereo unspecified) . Reported solubility (mole fraction)?
0.0238

* * *

ASSAY_CONDITIONS: in n-heptane, 288.15 K
METRIC: solubility (mole fraction)
Numbers only.

Data request, read-out solubility (mole fraction), for CC(C)(C)C(=O)C(Oc1ccc(Cl)cc1)n1cncn1 (stereo unspecified)
0.00129

* * *

ASSAY_CONDITIONS: in p-xylene, 318.15 K
METRIC: solubility (mole fraction)
Give bare numbers.

Return reported solubility (mole fraction); argument: CC(C)(C)C(=O)C(Oc1ccc(Cl)cc1)n1cncn1 (stereo unspecified)
0.299

* * *

ASSAY_CONDITIONS: in n-heptane, 308.15 K
METRIC: solubility (mole fraction)
Give bare numbers.

For the molecule CC(C)(C)C(=O)C(Oc1ccc(Cl)cc1)n1cncn1 (stereo unspecified) , what solubility (mole fraction) is on record?
0.00737

* * *

ASSAY_CONDITIONS: in cyclohexane, 308.15 K
METRIC: solubility (mole fraction)
Answers are plain numbers.

Using the record for CC(C)(C)C(=O)C(Oc1ccc(Cl)cc1)n1cncn1 (stereo unspecified) , report its solubility (mole fraction).
0.0178

* * *

ASSAY_CONDITIONS: in toluene, 293.15 K
METRIC: solubility (mole fraction)
Numbers only.

Recorded solubility (mole fraction) of CC(C)(C)C(=O)C(Oc1ccc(Cl)cc1)n1cncn1 (stereo unspecified) , please.
0.119

* * *

ASSAY_CONDITIONS: in n-heptane, 333.15 K
METRIC: solubility (mole fraction)
Give bare numbers.

Look up solubility (mole fraction) for this compound: CC(C)(C)C(=O)C(Oc1ccc(Cl)cc1)n1cncn1 (stereo unspecified)
0.0491

* * *

ASSAY_CONDITIONS: in p-xylene, 298.15 K
METRIC: solubility (mole fraction)

Consider the molecule CC(C)(C)C(=O)C(Oc1ccc(Cl)cc1)n1cncn1 (stereo unspecified) and give its measured solubility (mole fraction).
0.112

* * *

ASSAY_CONDITIONS: in p-xylene, 308.15 K
METRIC: solubility (mole fraction)

Sample CC(C)(C)C(=O)C(Oc1ccc(Cl)cc1)n1cncn1 (stereo unspecified) — what was its solubility (mole fraction)?
0.188

* * *

ASSAY_CONDITIONS: in toluene, 308.15 K
METRIC: solubility (mole fraction)
Numbers only.

For CC(C)(C)C(=O)C(Oc1ccc(Cl)cc1)n1cncn1 (stereo unspecified) , what is its reported solubility (mole fraction)?
0.235

* * *

ASSAY_CONDITIONS: in p-xylene, 303.15 K
METRIC: solubility (mole fraction)
One number for each entry.

Look up solubility (mole fraction): CC(C)(C)C(=O)C(Oc1ccc(Cl)cc1)n1cncn1 (stereo unspecified)
0.147

* * *

ASSAY_CONDITIONS: in p-xylene, 328.15 K
METRIC: solubility (mole fraction)
Numbers only.

Requested read-out: solubility (mole fraction). Entry: CC(C)(C)C(=O)C(Oc1ccc(Cl)cc1)n1cncn1 (stereo unspecified)
0.456

* * *

ASSAY_CONDITIONS: in acetonitrile, 313.15 K
METRIC: solubility (mole fraction)

For the compound shown here, CC(C)(C)C(=O)C(Oc1ccc(Cl)cc1)n1cncn1 (stereo unspecified) , give the reported solubility (mole fraction).
0.0285

* * *

ASSAY_CONDITIONS: in n-hexane, 328.15 K
METRIC: solubility (mole fraction)
One number for each entry.

What solubility (mole fraction) value was documented for this compound, CC(C)(C)C(=O)C(Oc1ccc(Cl)cc1)n1cncn1 (stereo unspecified) ?
0.0233

* * *

ASSAY_CONDITIONS: in n-heptane, 298.15 K
METRIC: solubility (mole fraction)
One number for each entry.

For the molecule shown here, CC(C)(C)C(=O)C(Oc1ccc(Cl)cc1)n1cncn1 (stereo unspecified) , give the reported solubility (mole fraction).
0.00321
